Target: recombinant mouse PDE5 (Mus musculus)
Construct: made in house; host or cells: HEK 293 cells, transient transfection; lysate supernatant or Mono Q fractions
Assay: PDE5 activity assay of recombinant mouse PDE5 expressed in HEK 293 cells
Assay type: biochemical
Conditions: IC50 for sildenafil inhibition, control PDE5, assayed at 0.1 μM cGMP
observable: pIC50
In plain terms, pIC50 is the concentration in mol/L turned into minus its base-10 logarithm.

Q. Using known records, supply pIC50 for `CCCc1nn(C)c2c(=O)[nH]c(-c3cc(S(=O)(=O)N4CCN(C)CC4)ccc3OCC)nc12`
A. 8.68

====

Target: recombinant mouse PDE5 (Mus musculus, UniProt Q8CG03)
Construct: made in house; host or cells: HEK 293 cells, transient transfection; lysate supernatant or Mono Q fractions
Experiment: PDE5 activity assay of recombinant mouse PDE5 expressed in HEK 293 cells
Assay type: biochemical
Settings: IC50 for sildenafil inhibition, activated PDE5, assayed at 0.1 μM cGMP
observable: IC50
Don't forget the unit after the number, please.

Q. Identify measured IC50 associated with `CCCc1nn(C)c2c(=O)[nH]c(-c3cc(S(=O)(=O)N4CCN(C)CC4)ccc3OCC)nc12`
A. 0.6 nM

====

Target: recombinant mouse PDE5 (Mus musculus, UniProt Q8CG03)
Construct: made in house; host or cells: HEK 293 cells, transient transfection; lysate supernatant or Mono Q fractions
Experiment: PDE5 activity assay of recombinant mouse PDE5 expressed in HEK 293 cells
Assay type: biochemical
Settings: IC50 for sildenafil inhibition, activated PDE5, assayed at 1.0 μM cGMP
observable: pIC50
Conceptually, pIC50 converts a concentration in mol/L into minus its log10.

Q. Provide measured pIC50 value, entry: `CCCc1nn(C)c2c(=O)[nH]c(-c3cc(S(=O)(=O)N4CCN(C)CC4)ccc3OCC)nc12`
A. 8.92

====

Molecular target: expressed bovine cGB-PDE cDNA protein product (Bos taurus)
Assay: cGMP phosphodiesterase activity of extracts of COS cells transfected with bovine cGB-PDE, in presence of PDE inhibitors
Assay type: biochemical
observable: IC50 (µM)
Numbers only; they are read as µM.

Q. Using the record for `CCCOc1ccccc1-c1nc2nn[nH]c2c(=O)[nH]1` , state its measured IC50.
A. 2

====

Target: D289A mutant cGB-PDE (Bos taurus, UniProt Q28156, D289A)
Assay: cGMP-binding kinetics of D289A mutant cGB-PDE
Conditions: read-out: Kd of cGMP binding
pKd: −log10 of the molar value.
observable: pKd

Q. Quickly give me recorded pKd for `Nc1nc2c(ncn2[C@@H]2O[C@@H]3COP(=O)(O)O[C@H]3[C@H]2O)c(=O)[nH]1`
A. < 4.70
